# Test system: IGROV1 ovarian
# Procedure details: NCI-60 one-dose screen, 48 h (100 = growth as untreated, 0 = no growth, -100 = all killed)
# Assay setup: 10 µM unless noted
This is part of a sample that, as a whole, favours compounds with a hit. Of some 83,000 tested, about 20% had one in any assay. Calls of active or inactive are those of the source. Rule for the calls: active = growth percent below 10; inactive = the rest.

{"Compound": "c1ccc(Nc2ccc(Nc3nc(-c4ccccc4)nc4ccccc34)cc2)cc1", "Tested on": "IGROV1 ovarian", "growth": "96.7% (inactive)"}
{"Compound": "O=C(Nc1cccc(Cl)c1)Nc1cccc(Cl)c1", "Tested on": "IGROV1 ovarian", "growth": "91.4% (inactive)"}
{"Compound": "CN(C)CCCNc1nn2c(=O)c3ccccc3nc2c2ccccc12", "Tested on": "IGROV1 ovarian", "growth": "-12.2% (active)"}
{"Compound": "CCN(CC)c1ccc(N=C2C=CC(=O)C=C2NC(C)=O)cc1", "Tested on": "IGROV1 ovarian", "growth": "96.7% (inactive)"}
{"Compound": "CC(=O)Nc1c(Cl)cc2c(c1Cl)Cc1ccccc1-2", "Tested on": "IGROV1 ovarian", "growth": "93% (inactive)"}
{"Compound": "NS(=O)(=O)c1ccc(-n2nc(-c3ccc(Br)cc3)ccc2=O)cc1", "Tested on": "IGROV1 ovarian", "growth": "50.2% [100 µM] (inactive)"}
{"Compound": "N#Cc1c(-c2ccccc2)cc(-c2ccccc2)n(CCCC(=O)O)c1=O", "Tested on": "IGROV1 ovarian", "growth": "99.4% (inactive)"}
{"Compound": "COc1cc(/C=C2\\CN(S(=O)(=O)c3ccc(C)cc3)C/C(=C\\c3cc(CN4CCOCC4)c(O)c(OC)c3)C2=O)cc(CN2CCOCC2)c1O", "Tested on": "IGROV1 ovarian", "growth": "-17% (active)"}
{"Compound": "COc1cc(/C=C2\\SC(N3CCCCC3)=NC2=O)ccc1OCCCCCCOc1ccc(/C=C2\\SC(N3CCCCC3)=NC2=O)cc1OC", "Tested on": "IGROV1 ovarian", "growth": "19.5% (inactive)"}
{"Compound": "C=C1CC[C@@H]2[C@](C)(COC(C)=O)[C@H](OC(C)=O)CC[C@@]2(C)[C@@H]1CC(NCc1ccccc1)C1=CCOC1=O (stereo not given in full)", "Tested on": "IGROV1 ovarian", "growth": "62.9% (inactive)"}
{"Compound": "COc1cc(C(=O)c2cc3c(cc2C)OCO3)cc(OC)c1OC", "Tested on": "IGROV1 ovarian", "growth": "25.1% (inactive)"}
{"Compound": "C[C@H]1c2cccc(O)c2C(O)=C2C(=O)[C@]3(O)C(O)=C(C(N)=O)C(=O)[C@@H](N(C)C)[C@@H]3[C@@H](O)[C@@H]21", "Tested on": "IGROV1 ovarian", "growth": "21.4% (inactive)"}
{"Compound": "C/C(=C\\CCc1ccoc1)CC/C=C(\\C)CCCN1CCOCC1", "Tested on": "IGROV1 ovarian", "growth": "71.3% (inactive)"}
{"Compound": "CC(C)Sc1nc(Cl)c(C#N)c(-c2ccc(F)cc2)n1", "Tested on": "IGROV1 ovarian", "growth": "103% (inactive)"}
{"Compound": "CC(C)=CCCC(C)c1ccc(C)c2c1OCN(CC1CCNCC1)C2 (stereo not given)", "Tested on": "IGROV1 ovarian", "growth": "78.7% (inactive)"}
{"Compound": "OCc1n(Cc2ccc3ccccc3c2)cc[n+]1Cc1ccc2ccccc2c1", "Tested on": "IGROV1 ovarian", "growth": "21.9% (inactive)"}
{"Compound": "CC(=O)N1N=C(c2ccc(Nc3ccnc4cc(Cl)ccc34)cc2)CC1c1ccc(Cl)cc1 (stereo not given)", "Tested on": "IGROV1 ovarian", "growth": "51.1% (inactive)"}
{"Compound": "O=C(Nc1ccc2c(c1)C(=O)c1ccccc1-2)c1ccccc1", "Tested on": "IGROV1 ovarian", "growth": "73.4% (inactive)"}
{"Compound": "COc1cnc2c(c1)C(=O)c1c-2n(CCCN2CCCC2)c(=O)c2cc(F)ccc12", "Tested on": "IGROV1 ovarian", "growth": "4.37% (active)"}
{"Compound": "O=C(CNC(=O)c1cccc2ccccc12)Nc1ccccc1Oc1ccc(O)cc1", "Tested on": "IGROV1 ovarian", "growth": "38% [5 µM] (inactive)"}

###

# Test system: OVCAR-4 ovarian
# Procedure details: NCI-60 one-dose screen, 48 h
# Assay setup: 10 µM unless noted
Compounds without any hit were thinned out: in the full panel of roughly 83,000, 20% have a hit. Active and inactive are the calls of the source. The calls were made as follows: active = growth percent below 10; inactive = the rest.
Classes used: t = active, f = inactive

{"Compound": "COc1ccc(C2CC(c3ccc4c(c3)OCO4)=NN2C=O)cc1 (configuration not stated)", "Category": "f"}
{"Compound": "Nc1c(C(=O)Nc2cccc(Cl)c2)sc2nc3c(cc12)C(O)CCC3 (configuration not stated)", "Category": "f"}
{"Compound": "C[C@@H]1C[C@@H]([C@@H](CC2CC(=O)NC(=O)C2)OC(=O)CC(=O)c2ccccc2)C(=O)[C@@H](C)C1", "Category": "f"}
{"Compound": "CCOC(=O)CNC(=O)C1(NC(=O)CNC(=O)OCc2ccccc2)CCCC1", "Category": "f"}
{"Compound": "COP(=O)(OC)C(c1ccc(O)cc1)(c1ccc(O)cc1)c1ccc(O)cc1", "Category": "f"}
{"Compound": "C/C(=C\\CCc1ccoc1)CC/C=C(\\C)CCCNc1ccc(F)cc1", "Category": "f"}
{"Compound": "NC(=N\\N=C/Cc1ccccc1)/C(N)=N\\N=C\\Cc1ccccc1", "Category": "f"}
{"Compound": "Nc1nc(Nc2ccccc2SSc2ccccc2Nc2nc(N)nc(-c3cccc(Cl)c3)n2)nc(-c2cccc(Cl)c2)n1", "Category": "f"}
{"Compound": "COc1ccc2c(c1)[n+](=O)c(/C=C/C(=O)c1cc(OC)c(OC)c(OC)c1)c(C)n2[O-]", "Category": "f"}
{"Compound": "O=C1c2cccc3c([N+](=O)[O-])ccc(c23)C(=O)N1CCCCl", "Category": "t"}
{"Compound": "Cn1c(=O)c2[nH]c(=S)n(Cc3ccccc3)c2n(C)c1=O", "Category": "f"}
{"Compound": "Cc1ccc(-c2csc(N)n2)cc1", "Category": "f"}
{"Compound": "CC(C)CC1NC(=O)C(CCCN)NC(=O)C(C(C)C)NC(=O)C2CCCN2C(=O)C(Cc2ccccc2)NC(=O)C(CC(C)C)NC(=O)C(CCCN)NC(=O)C(C(C)C)NC(=O)C2CCCN2C(=O)C(Cc2ccccc2)NC1=O (configuration not stated)", "Category": "t"}
{"Compound": "COc1cc(C(=O)/C=C/c2cccc(Nc3ccnc4cc(Cl)ccc34)c2)cc(OC)c1OC", "Category": "t"}
{"Compound": "c1ccc(-c2nc(Nc3nccnn3)c3ccccc3n2)cc1", "Category": "f"}
{"Compound": "O=C(O)C1CCN(S(=O)(=O)c2ccc(-c3ccccc3)cc2)CC1", "Category": "f"}
{"Compound": "COc1ccc2ncccc2c1Cc1c(OC)ccc2ncccc12", "Category": "f"}
{"Compound": "Nc1nc(NC2CC2)c2ncn(C3C=CC(CO)C3)c2n1 (configuration not stated)", "Category": "f"}
{"Compound": "O=C1/C(=C/c2cccc(Cl)c2)CCc2ccccc21", "Category": "f"}
{"Compound": "O=C(N/N=C/c1cccc(O)c1)c1ccc(C(F)(F)F)nc1Nc1cccc(C(F)(F)F)c1", "Category": "f"}
{"Compound": "CCCCN=C(N)c1ccc(OCCSCCOc2ccc(C(N)=NCCCC)cc2)cc1", "Category": "f"}
{"Compound": "CC[C@@H](c1ccc(O)c(O)c1)[C@@H](CC)c1ccc(O)c(O)c1", "Category": "f"}
{"Compound": "CSc1nc2nc3c(c(-c4ccc(C)cc4)c2c(=O)[nH]1)CN(C)C/C3=C\\c1ccc(C)cc1", "Category": "f"}
{"Compound": "c1ccc(CN=C(NCc2ccccc2)NCc2ccccc2)cc1", "Category": "f"}
{"Compound": "N#Cc1c(-c2ccccc2)cc(-c2ccccc2)n(CCCC(=O)O)c1=O", "Category": "f"}
{"Compound": "COc1cc(/C=N/OC(=O)Nc2ccccc2)cc(OC)c1OC", "Category": "f"}
{"Compound": "COc1ccc2c3c(ccc2c1)C(=O)/C(=C\\O)CC3", "Category": "f"}
{"Compound": "COc1cc(-c2nnc(-c3nc(-c4cc(OC)c(OC)c(OC)c4)n4ccccc34)o2)ccc1N", "Category": "f"}
{"Compound": "C[C@H](C(=O)N[C@@H](Cc1ccc(-c2ccccc2)cc1)C(=O)NC1CC(C)(C)N(C)C(C)(C)C1)c1ccc(-c2ccccc2)c(F)c1", "Category": "t"}
{"Compound": "CC(=O)N1N=C(c2ccc(Nc3nc(NCCO)nc(NCCO)n3)cc2)CC1c1ccc(Cl)cc1 (configuration not stated)", "Category": "f"}
{"Compound": "CCOC(=O)c1cnc2c(C)cc(C)cc2c1NCCCN(C)C", "Category": "f"}
{"Compound": "CCC(C)C1NC(=O)C(CCNCS(=O)(=O)O)NC(=O)C(NC(=O)C(CCNCS(=O)(=O)O)NC(=O)C(NC(=O)C(CCNCS(=O)(=O)O)NC(=O)CCCCC(C)C)C(C)O)CCNC(=O)C(C(C)O)NC(=O)C(CCNCS(=O)(=O)O)NC(=O)C(CCNCS(=O)(=O)O)NC(=O)C(C(C)CC)NC1=O (configuration not stated)", "Category": "f"}
{"Compound": "Nc1ccc2c(c1Br)Cc1ccccc1-2", "Category": "f"}
{"Compound": "C[C@]12CC[C@H](O)CC1=CC[C@@H]1[C@@H]2CC[C@]2(C)C(c3cccnc3)=CC[C@@H]12", "Category": "f"}
{"Compound": "O=C(c1ccccc1)c1ccc(Oc2ccc([N+](=O)[O-])cc2[N+](=O)[O-])cc1", "Category": "f"}
{"Compound": "COC(=O)C1CCN(S(=O)(=O)c2ccc(-c3ccccc3)cc2)CC1", "Category": "f"}
{"Compound": "CCOc1cc(/C=C/C(=O)C(C(=O)/C=C/c2ccc(OC(=O)CNc3nnc(C)s3)c(OCC)c2)C(=O)CNc2nnc(C)s2)ccc1OC(=O)CNc1nnc(C)s1", "Category": "f"}
